What follows is literature data on Ki for Alpha-1D adrenergic receptor (Homo sapiens, UniProt P25100).
readout: Ki (nM)

Examples with answers:
{"compound": "O=C1CC2(CCN(CCc3cccc4ccccc34)CC2)Oc2ccccc21", "recorded result": 67}
{"compound": "O=C1CC2(CCN(CCc3cccc4ccccc34)CC2)Oc2ccc(NS(=O)(=O)Cc3ccccc3)cc21", "recorded result": 53}
{"compound": "Cc1cccc(N2C(=O)c3ccc(C(=O)NCC(O)CN4CCN(c5ccccc5OC(C)C)CC4)cc3C2=O)c1 (configuration not stated)", "recorded result": 73}
{"compound": "CCOC(=O)[C@@H]1CN(CCCCN2C(=O)c3cc(Cl)ccc3S2(=O)=O)CC[C@@H]1c1ccccc1", "recorded result": 480}
{"compound": "COc1cc2nc(N3CCC[C@H](NC4=CC(=O)c5ccccc5C4=O)C3)nc(N)c2cc1OC", "recorded result": 2.14}
{"compound": "CCOc1ccccc1OCCNCCOc1ccccc1OCc1ccccc1", "recorded result": 3.72}
{"compound": "COCC1=C(C(=O)OC)[C@H](c2ccc(F)c(F)c2)N(C(=O)N[C@H]2CC[C@H](N3CCN(c4ccccc4C#N)CC3)C2)C(=O)N1", "recorded result": 9}
{"compound": "COc1ccccc1N1CCN(CCn2c(C)nc3c(sc4ccc(NC(=O)CCCC(=O)NCCc5ccccc5)cc43)c2=O)CC1", "recorded result": 0.759}

a. CCC1=C(C(=O)NCCCN2CCC(c3ccccc3)(c3ccccc3)CC2)C(c2ccc([N+](=O)[O-])cc2)/C(=C(\O)OC)C(C)=N1 (configuration not stated)
b. COc1ccccc1OCCNCC[C@H]1CO[C@H](C(c2ccccc2)c2ccccc2)O1 (relative stereo)
c. COc1ccc(N2C(=O)c3ccc(C(=O)NC[C@@H](O)CN4CCN(c5ccccc5OC(C)C)CC4)cc3C2=O)cc1
d. CO/C(O)=C1\C(C)=NC(C)=C(C(=O)NCCCN2CCC(c3ccccc3)(c3ccccc3)CC2)C1c1ccc(C)cc1 (configuration not stated)
Task: Hi! Can you put these in order of Ki, lowest number first? Please write the labels in the order that was asked for.
Result: b, c, a, d
(b: 15.8 nM, c: 52 nM, a: 204 nM, d: 316 nM)

1. Cc1ccc(N(NC2=NCCN2)c2cccc(O)c2)cc1
2. COC(=O)C1=C(C)NC(=O)N(C(=O)NCCCN2CCC3(CC2)OCCc2ccccc23)C1c1ccc(F)c(F)c1 (configuration not stated)
Task: Lab log: flag the item ( 1 or 2 ) with the smaller Ki figure. Could you answer with the label of the item you picked?
Result: 1

P. COCC1=C(C(=O)OC)[C@H](c2ccc(F)c(F)c2)N(C(=O)N[C@H]2CC[C@@H](N3CCN(c4ccccc4C#N)CC3)C2)C(=O)N1
Q. COc1ccccc1N1CCN(C[C@H]2CO[C@@](CN3CCCCC3=O)(c3ccccc3)O2)CC1
Task: Sort P and Q by Ki descending and give the first. Could you answer with the label of the item you picked?
Result: P
(P: 39 nM, Q: 14.1 nM)

---

pKi: −log10 of the molar value.
What follows is literature data on pKi for Alpha-1D adrenergic receptor (Homo sapiens).
readout: pKi

Examples with answers:
{"compound": "COc1ccccc1N1CCN(CCn2c(C)nc3c(sc4ccc(NC(=O)CCCNC(=O)Cc5ccccc5)cc43)c2=O)CC1", "pKi": 8.64}
{"compound": "COc1ccc2c(c1OCCNC[C@H]1COc3ccccc3O1)OCC2.Cl", "pKi": 8.65}
{"compound": "O=C1CCCN1Cc1cc(CN2CCN(c3ccccc3Oc3ccccc3)CC2)on1", "pKi": 7.46}
{"compound": "COc1ccccc1N1CCN(CCn2c(=O)[nH]c3sc(C)c(-c4ccccc4)c3c2=O)CC1", "pKi": 9.33}
{"compound": "CO/C(O)=C1\\C(C)=NC(C)=C(C(=O)NCCCN2CCC(c3ccccc3)(c3ccccc3)CC2)C1c1ccc(Cl)cc1 (centres undefined)", "pKi": 6.35}

P. O=C1CC2(CCCC2)CC(=O)N1CCN1CCC(c2ccccc2)CC1
Q. CC(C)Oc1ccccc1N1CCN(CC(=O)CC(=O)CN2CCCCC2=O)CC1
R. COc1cccc(OC)c1OCCNC[C@H]1COc2c(OC)cccc2O1.Cl
Task: hey, can you rank those compounds up there by pKi? biggest number first please Please write the labels in the order that was asked for.
Result: P, R, Q
